TESTED ON: cholesterol ester hydrolase (Homo sapiens)
METHOD: biochemical
CONDITION SUMMARY: read-out: IC50 against CEH
ENDPOINT NAME: IC50

COMPOUND	ENDPOINT NAME	RESULT
CCCCCCCC/C=C\CCCCCCCCNC(=O)ON=C(C1=CC(=O)C(C)(C)O1)c1ccccc1 [Example 4]	IC50	5.4 µM

* * *

TESTED ON: cholesterol ester hydrolase (Homo sapiens, UniProt P19835)
Sequence (P19835 21-753): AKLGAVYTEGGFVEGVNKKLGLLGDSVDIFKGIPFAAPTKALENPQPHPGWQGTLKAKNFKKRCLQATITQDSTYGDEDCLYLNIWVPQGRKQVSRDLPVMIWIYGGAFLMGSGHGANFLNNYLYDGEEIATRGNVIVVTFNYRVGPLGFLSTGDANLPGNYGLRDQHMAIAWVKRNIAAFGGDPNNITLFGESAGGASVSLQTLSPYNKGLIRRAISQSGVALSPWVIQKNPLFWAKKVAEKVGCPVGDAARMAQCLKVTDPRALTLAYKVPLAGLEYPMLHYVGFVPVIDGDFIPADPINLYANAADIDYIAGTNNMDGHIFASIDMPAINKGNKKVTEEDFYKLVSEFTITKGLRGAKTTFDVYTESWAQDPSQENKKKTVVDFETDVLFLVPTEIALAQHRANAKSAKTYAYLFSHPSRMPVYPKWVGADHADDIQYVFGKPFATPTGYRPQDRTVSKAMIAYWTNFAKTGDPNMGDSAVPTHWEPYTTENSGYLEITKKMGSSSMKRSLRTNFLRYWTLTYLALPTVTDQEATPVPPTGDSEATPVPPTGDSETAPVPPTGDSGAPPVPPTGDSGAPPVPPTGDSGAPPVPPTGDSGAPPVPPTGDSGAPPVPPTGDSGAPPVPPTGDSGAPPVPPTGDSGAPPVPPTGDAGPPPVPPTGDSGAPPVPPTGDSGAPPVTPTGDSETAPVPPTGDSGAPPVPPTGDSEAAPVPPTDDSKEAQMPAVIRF
METHOD: biochemical
Below: a set of entries, each annotated with reported IC50.

COMPOUND	IC50 / nM
CCCCC/C=C/C/C=C/CCCCCCCCNC(=O)ON=C(C1=CC(=O)C(C)(C)O1)c1ccccc1 [Example 6]	2700
CCCCCCCCNC(=O)ON=C(c1ccc(F)cc1)c1ccccn1 [Example 17]	440
CCCCCCCCNC(=O)ON=C(C1=CC(=O)C(C)(c2ccc(C(C)(C)C)cc2)O1)c1ccccc1 (stereo not shown) [Example 10]	12700
CC1(C)CCC(NC(=O)ON=C(C2=CC(=O)C(C)(C)O2)c2ccccc2)CC1 [Example 3]	100
CCCCCCCCCCCCNC(=O)ON=C(C1=C(Br)C(=O)C(C)(C)O1)c1ccccc1 [Example 12]	2270
O=C(NC1CCCCC1)ON=C(c1ccccc1)c1ccccn1 [Example 14]	1400
CCCCCCCCNC(=O)ON=C(C1=CC(=O)C(C)(c2ccccc2)O1)c1ccccc1 (stereo not shown) [Example 8]	130
CCCCCCCCNC(=O)ON=C(c1ccccn1)c1ccccn1 [Example 16]	2770
CCCCCCCCCCCCNC(=O)ON=C(C1=CC(=O)C(C)(C)O1)c1ccccc1 [Example 2]	570
CCCCCCCCNC(=O)ON=C(c1ccc(OC)cc1)c1ccccn1 [Example 18]	2100
CCCCCCCCNC(=O)ON=C(CCc1ccccc1)C1=CC(=O)C(C)(C)O1 [Example 11]	1500
CCCCCCCCNC(=O)ON=C(C1=CC(=O)C(C)(c2ccc(Cl)cc2)O1)c1ccccc1 (stereo not shown) [Example 9]	2640
CCCCCCCCNC(=O)ON=C(C1=CC(=O)C(C)(C)O1)c1ccccc1 [Example 1]	1900
CCCCCCCCCCCCNC(=O)ON=C(C1=CC(=O)C(C)(C)O1)c1ccc(Cl)cc1 [Example 13]	10000
CCCCCCCC/C=C/CCCCCCCCCNC(=O)ON=C(C1=CC(=O)C(C)(C)O1)c1ccccc1 [Example 5]	25000
CCCCCCCCNC(=O)ON=C(C1=CC(=O)C(C)(C2CCCCC2)O1)c1ccccc1 (stereo not shown) [Example 7]	1900

These entries and their values trace back to patent US5438056A.
